assay: Plasma pharmacokinetics in rats after i.v. and i.g. dosing (UPLC-FLR); assay type: in vivo, Sprague Dawley rats; details: both sexes, Sprague Dawley, rat, plasma, iv, 12 mg/kg, i.v. dosing at 4, 8 and 12 mg/kg, read-out: half-life t1/2α of intravenous administration
readoutKind: half-life

Qu. Given CC[C@@]12CC(C(=O)OC)=C3Nc4cc5c(cc4[C@@]34CCN(C[C@H]3O[C@H]31)[C@@H]24)[C@@H]1C(O5)[C@@H](O)[C@@]2(CC)CC(C(=O)OC)=C3Nc4cc(OC)ccc4[C@@]34CCN1[C@@H]24 (stereo partly shown) [10-dehydroxyl-12-demethoxy-conophylline, 10-Dehydroxyl-12-demethoxy-conophylline] , state its recorded half-life.
Ans. ~7 min

====

test: Plasma pharmacokinetics in rats after i.v. and i.g. dosing (UPLC-FLR); assay type: in vivo, Sprague Dawley rats; details: both sexes, Sprague Dawley, plasma, iv; rat, 8 mg/kg i.v., mean ± SD, n = 6
readoutKind: clearance (mL/min/kg)
Report the value in mL/min/kg with no unit label.

Qu. Given CC[C@@]12CC(C(=O)OC)=C3Nc4cc5c(cc4[C@@]34CCN(C[C@H]3O[C@H]31)[C@@H]24)[C@@H]1C(O5)[C@@H](O)[C@@]2(CC)CC(C(=O)OC)=C3Nc4cc(OC)ccc4[C@@]34CCN1[C@@H]24 (stereo partly shown) [10-dehydroxyl-12-demethoxy-conophylline, 10-Dehydroxyl-12-demethoxy-conophylline] , state its recorded clearance.
Ans. 39

====

assay: Plasma pharmacokinetics in rats after i.v. and i.g. dosing (UPLC-FLR); format: in vivo, Sprague Dawley rats; settings: both sexes, Sprague-Dawley, plasma, iv; rat, 4 mg/kg i.v., mean ± SD, n = 6
readoutKind: MRT (h)
Report the value in h with no unit label.

Qu. Given CC[C@@]12CC(C(=O)OC)=C3Nc4cc5c(cc4[C@@]34CCN(C[C@H]3O[C@H]31)[C@@H]24)[C@@H]1C(O5)[C@@H](O)[C@@]2(CC)CC(C(=O)OC)=C3Nc4cc(OC)ccc4[C@@]34CCN1[C@@H]24 (stereo partly shown) [10-dehydroxyl-12-demethoxy-conophylline, 10-Dehydroxyl-12-demethoxy-conophylline] , state its recorded MRT.
Ans. 1.52

====

Assay: Plasma protein binding by equilibrium dialysis, rat plasma
Assay type: in vitro ADME
Conditions: Sprague Dawley, rat, three concentrations (1.00, 2.50 and 5.00 µg/mL), summary in abstract, read-out: protein binding degree
Experimental: Protein binding was determined in vitro by equilibrium dialysis of plasma of rats or human serum albumin. Blank dialysate, internal dialysate, and external dialysate were prepared separately. […] The protein binding rate of 10-dehydroxyl-12-demethoxy-conophylline in plasma was measured using the equilibrium dialysis method in this experiment. […]
readoutKind: fraction unbound

Qu. Given CC[C@@]12CC(C(=O)OC)=C3Nc4cc5c(cc4[C@@]34CCN(C[C@H]3O[C@H]31)[C@@H]24)[C@@H]1C(O5)[C@@H](O)[C@@]2(CC)CC(C(=O)OC)=C3Nc4cc(OC)ccc4[C@@]34CCN1[C@@H]24 (stereo partly shown) [10-dehydroxyl-12-demethoxy-conophylline, 10-Dehydroxyl-12-demethoxy-conophylline] , state its recorded fraction unbound.
Ans. < 0.2

====

assay: Plasma pharmacokinetics in rats after i.v. and i.g. dosing (UPLC-FLR); type: in vivo, Sprague Dawley rats; conditions: both sexes, Sprague-Dawley, plasma, po; rat, 20 mg/kg i.g., mean ± SD, n = 6
readoutKind: MRT

Qu. Given CC[C@@]12CC(C(=O)OC)=C3Nc4cc5c(cc4[C@@]34CCN(C[C@H]3O[C@H]31)[C@@H]24)[C@@H]1C(O5)[C@@H](O)[C@@]2(CC)CC(C(=O)OC)=C3Nc4cc(OC)ccc4[C@@]34CCN1[C@@H]24 (stereo partly shown) [10-dehydroxyl-12-demethoxy-conophylline, 10-Dehydroxyl-12-demethoxy-conophylline] , state its recorded MRT.
Ans. 4.28 h
